# Test system: M-07e cells
# Experimental Details: M-07e cellular assay (SCF-mediated cell proliferation)
# Type: cell-based
# Applied Conditions: Homo sapiens, 72 hours, CellTiter Glo
pEC50: −log10 of the molar value.
Measurement Name: pEC50

[[record]]
compound = "Cc1ccc(-c2noc([C@H]3C[C@@H]3F)n2)cc1NC(=O)c1cnn2ccc(-c3cn(C45CC(C(F)(F)F)(C4)C5)nn3)cc12 [Example 126]"
observed = "> 7.00"

[[record]]
compound = "Cc1ccc(-c2noc([C@H]3C[C@@H]3F)n2)cc1NC(=O)c1cnn2ccc(O[C@@H]3CCOC3)cc12 [Example 220]"
observed = "6.00 to 7.00"

[[record]]
compound = "COC(=O)N1CC(c2nc(-c3ccc(C)c(NC(=O)c4cnn5cc(-c6cn(C(F)F)nn6)ccc45)c3)no2)C1 [Example 132-15]"
observed = "> 7.00"

